Target: human TLR7 (Homo sapiens, UniProt Q9NYK1)
Construct: host or cells: HEK293
Sequence (Q9NYK1 27-1049): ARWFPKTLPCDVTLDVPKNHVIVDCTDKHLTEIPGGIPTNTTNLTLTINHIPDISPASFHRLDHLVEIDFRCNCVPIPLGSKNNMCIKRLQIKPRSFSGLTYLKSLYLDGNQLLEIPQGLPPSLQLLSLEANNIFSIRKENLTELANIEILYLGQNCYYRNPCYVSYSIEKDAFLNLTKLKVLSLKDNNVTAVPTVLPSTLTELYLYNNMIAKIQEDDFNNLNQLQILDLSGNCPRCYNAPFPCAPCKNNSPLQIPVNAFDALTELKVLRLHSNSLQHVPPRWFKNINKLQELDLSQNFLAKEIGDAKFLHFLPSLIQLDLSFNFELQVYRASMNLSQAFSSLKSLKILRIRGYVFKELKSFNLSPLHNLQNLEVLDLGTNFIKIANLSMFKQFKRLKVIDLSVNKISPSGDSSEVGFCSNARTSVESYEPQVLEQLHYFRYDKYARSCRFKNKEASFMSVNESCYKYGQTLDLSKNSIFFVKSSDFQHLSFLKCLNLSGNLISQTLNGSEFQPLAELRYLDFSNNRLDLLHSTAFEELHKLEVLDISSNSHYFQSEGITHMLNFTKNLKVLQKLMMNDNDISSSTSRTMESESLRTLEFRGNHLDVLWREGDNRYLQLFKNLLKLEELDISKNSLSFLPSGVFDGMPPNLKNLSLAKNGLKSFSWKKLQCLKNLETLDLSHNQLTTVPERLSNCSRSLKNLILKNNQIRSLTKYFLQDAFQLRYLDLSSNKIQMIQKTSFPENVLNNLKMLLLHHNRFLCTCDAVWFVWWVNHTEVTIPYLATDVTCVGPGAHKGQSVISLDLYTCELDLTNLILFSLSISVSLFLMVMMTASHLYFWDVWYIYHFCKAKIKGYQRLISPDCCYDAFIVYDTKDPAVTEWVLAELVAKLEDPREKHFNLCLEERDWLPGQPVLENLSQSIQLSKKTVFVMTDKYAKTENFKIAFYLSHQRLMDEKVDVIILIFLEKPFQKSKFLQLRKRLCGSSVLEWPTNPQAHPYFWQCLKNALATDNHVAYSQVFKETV
Assay: HEK293-humanTLR7 SEAP reporter assay (Example 8)
Type: cell-based
Details: HEK293-hTLR7 SEAP reporter cells, 24 hrs
pEC50: −log10 of the molar value.
Reported Metric: pEC50

>>> df
                                chem_smiles  recorded_measurement
0  CCCCCNc1nc(N)nc2ccn(Cc3ccc(CN4CC5(CNCCO5)C4)cc3OC)c12                  8.82
1  CCCCCNc1nc(N)nc2ccn(Cc3ccc(CN4CC5(CCNCC5)C4)cc3OC)c12                  7.78
2  CCCCCNc1nc(N)nc2ccn(Cc3ccc(CN4CC(NC)C4)cc3OC)c12                  8.80
3  CCCCCNc1nc(N)nc2ccn(Cc3ccc(CN4CCC(c5nnc6n5CCNC6)CC4)cc3OC)c12                  6.43
4  CCCCCNc1nc(N)nc2ccn(Cc3ccc(CN4CC(C5CCNCC5)C4)cc3OC)c12                  7.03
5  CCCCCNc1nc(N)nc2ccn(Cc3ccc(CN4CC(N)C4)cc3OC)c12                  9.30
